Target: MBP-FoxP1dN (Mus musculus, UniProt P58462 326-579)
Sequence: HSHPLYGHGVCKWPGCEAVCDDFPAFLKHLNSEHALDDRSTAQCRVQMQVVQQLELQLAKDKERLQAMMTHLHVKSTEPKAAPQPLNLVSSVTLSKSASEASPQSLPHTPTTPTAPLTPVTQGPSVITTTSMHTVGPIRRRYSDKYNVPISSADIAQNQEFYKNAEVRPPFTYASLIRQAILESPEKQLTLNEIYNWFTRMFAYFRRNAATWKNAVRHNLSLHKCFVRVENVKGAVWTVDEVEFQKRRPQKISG
Test: PD-seq (MBP pull-down with sequencing); 20 mM Tris-HCl pH 7.5, 100 mM NaCl, 1.5 mM MgCl2, 0.4 uM protein, 0.1 uM dsDNA library, 30 min, room temperature, amylose pull-down; high values mean tight binding
Settings: protein: recombinant; tags: His6-MBP; chain copies: 2; dsDNA, one strand shown
Whole data set: some 16,000 sequences, median “rpm ratio (pull-down/input)” near 0.94, cut for the highest 2% near 1.7. What follows is part of a selection rich in the highest values, with near analogues and random picks from the rest.
Value kind: binding signal

As a guide, the following entries are already answered.
Input sequence	System tested	Result
GATGATTGTTCTCCCAGCTGATGAATTTGATTGCTCGAGTAAACAAATTTTCCTAATCTTTCTGTTCAAGCGCCATCTAC	MBP-FoxP1dN (Mus musculus, UniProt P58462 326-579)	1.16 RPM ratio (pull-down/input)
GATGATTGTTCTCCCAGCTGATGAATTAGTATTGTCGAGTAAACAAATTTTCCTAATCTTTCTGTTCAAGCGCCATCTAC	MBP-FoxP1dN (Mus musculus, UniProt P58462 326-579)	2.55 RPM ratio (pull-down/input)
GATGATTGTTCTCCCAGCTGATGAATTGAAAATCTCGAGTAAACAAATTTTCCTAATCTTTCTGTTCAAGCGCCATCTAC	MBP-FoxP1dN (Mus musculus, UniProt P58462 326-579)	0.791 RPM ratio (pull-down/input)

Batch request: binding signal per item, same order as input.
1. GATGATTGTTCTCCCAGCTGATGAATTCTGTTTTTCGAGTAAACAAATTTTCCTAATCTTTCTGTTCAAGCGCCATCTAC
2. GATGATTGTTCTCCCAGCTGATGAATTAGTAATTTCGAGTAAACAAATTTTCCTAATCTTTCTGTTCAAGCGCCATCTAC
3. GATGATTGTTCTCCCAGCTGATGAATTCTTTCAATCGAGTAAACAAATTTTCCTAATCTTTCTGTTCAAGCGCCATCTAC
4. GATGATTGTTCTCCCAGCTGATGAATTCGTGTTGTCGAGTAAACAAATTTTCCTAATCTTTCTGTTCAAGCGCCATCTAC
5. GATGATTGTTCTCCCAGCTGATGAATTCTTCGTGTCGAGTAAACAAATTTTCCTAATCTTTCTGTTCAAGCGCCATCTAC
6. GATGATTGTTCTCCCAGCTGATGAATTGTGCTGCTCGAGTAAACAAATTTTCCTAATCTTTCTGTTCAAGCGCCATCTAC
7. GATGATTGTTCTCCCAGCTGATGAATTCAAACAATCGAGTAAACAAATTTTCCTAATCTTTCTGTTCAAGCGCCATCTAC
8. GATGATTGTTCTCCCAGCTGATGAATTTTGATGGTCGAGTAAACAAATTTTCCTAATCTTTCTGTTCAAGCGCCATCTAC

1.99 RPM ratio (pull-down/input)
1.07 RPM ratio (pull-down/input)
0.972 RPM ratio (pull-down/input)
2.52 RPM ratio (pull-down/input)
0.867 RPM ratio (pull-down/input)
0.988 RPM ratio (pull-down/input)
1.81 RPM ratio (pull-down/input)
1.04 RPM ratio (pull-down/input)

Batch request: binding signal per item, same order as input.
1. GATGATTGTTCTCCCAGCTGATGAATTATTGGCTTCGAGTAAACAAATTTTCCTAATCTTTCTGTTCAAGCGCCATCTAC
2. GATGATTGTTCTCCCAGCTGATGAATTATTGATTTCGAGTAAACAAATTTTCCTAATCTTTCTGTTCAAGCGCCATCTAC

1: 1.1 RPM ratio (pull-down/input); 2: 1.72 RPM ratio (pull-down/input)

Batch request: binding signal per item, same order as input.
1. GATGATTGTTCTCCCAGCTGATGAATTGTGATTATCGAGTAAACAAATTTTCCTAATCTTTCTGTTCAAGCGCCATCTAC
2. GATGATTGTTCTCCCAGCTGATGAATTGTCCACATCGAGTAAACAAATTTTCCTAATCTTTCTGTTCAAGCGCCATCTAC
3. GATGATTGTTCTCCCAGCTGATGAATTCCGTACCTCGAGTAAACAAATTTTCCTAATCTTTCTGTTCAAGCGCCATCTAC
4. GATGATTGTTCTCCCAGCTGATGAATTGATTATTTCGAGTAAACAAATTTTCCTAATCTTTCTGTTCAAGCGCCATCTAC
5. GATGATTGTTCTCCCAGCTGATGAATTCGAGTTTTCGAGTAAACAAATTTTCCTAATCTTTCTGTTCAAGCGCCATCTAC
6. GATGATTGTTCTCCCAGCTGATGAATTTCTGTGCTCGAGTAAACAAATTTTCCTAATCTTTCTGTTCAAGCGCCATCTAC
7. GATGATTGTTCTCCCAGCTGATGAATTAGTATTTTCGAGTAAACAAATTTTCCTAATCTTTCTGTTCAAGCGCCATCTAC

1.74 RPM ratio (pull-down/input)
1.33 RPM ratio (pull-down/input)
0.829 RPM ratio (pull-down/input)
1.39 RPM ratio (pull-down/input)
1.08 RPM ratio (pull-down/input)
0.877 RPM ratio (pull-down/input)
2.28 RPM ratio (pull-down/input)

Batch request: binding signal per item, same order as input.
1. GATGATTGTTCTCCCAGCTGATGAATTCGTGTGTTCGAGTAAACAAATTTTCCTAATCTTTCTGTTCAAGCGCCATCTAC
2. GATGATTGTTCTCCCAGCTGATGAATTGTTGTGCTCGAGTAAACAAATTTTCCTAATCTTTCTGTTCAAGCGCCATCTAC
3. GATGATTGTTCTCCCAGCTGATGAATTACGTCGCTCGAGTAAACAAATTTTCCTAATCTTTCTGTTCAAGCGCCATCTAC

1.22 RPM ratio (pull-down/input)
2.06 RPM ratio (pull-down/input)
1.02 RPM ratio (pull-down/input)

Data origin, for the record: paper PMC12820563
